- Target Or Test System: Cyclin-dependent kinase 2 (Homo sapiens)
- Condition Parameters: Compound concentration 20.0 uM
- Description: Thermal Shift Assay. Domain: start/stop: M1-L298
Residues, ends and D or L forms follow the SMILES beside them. *: point of attachment. Cbz = O=C(OCc1ccccc1)*; CH2F = FC*
For each of the compounds below, state its ΔTm.
Expressed in °C, but write only the number.

Entry "NCCOCCOCCNC(=O)Cc1ccc(Nc2nc(NCc3ccc(F)cc3)nc(NCC3CCCCC3)n2)cc1" , system Cyclin-dependent kinase 2 (Homo sapiens): what ΔTm was measured?
0.63

Subsequent entry: "CCCSc1nc2c(c(=O)n1-c1ccccc1)SCC2"
-0.05

Repeat with "Nc1ccc(-c2cccs2)cc1NC(=O)c1ccc2nc(N3CCNCC3)ccc2c1"
1.41

Entry O=C(NC(Cc1ccccc1)C(=O)NC(Cc1ccccc1)C(=O)CF)OCc1ccccc1 (stereo not drawn) (Cbz-Phe-Phe-CH2F; configuration not given here) please
0.11

Entry to check: "CC/C(=C(/CC)c1ccc(O)cc1)c1ccc(O)cc1"
-5.57

Likewise for "CCC(CC)(NC(=O)C(C)C)C(=O)N[C@@H](CCCNC(=N)N)C(=O)NC1(C(=O)NC(c2ccc(F)cc2)c2ccc(F)cc2)CCCC1" ?
-0.27

// query: "COCCOCCn1nc2c(c1C)-c1c(Cl)ccc3c1c(C)c(C(=O)O)n3CCCOc1cc(cc3c(F)c(Cl)ccc13)CCc1cc(nn1C)CSC2"
-3.85

What do we get for "C[C@@H](Oc1ccc(S(C)(=O)=O)cc1C(=O)N1C[C@@H]2C[C@]2(c2cc(C(F)(F)F)on2)C1)C(F)(F)F" ?
0.09

Queued: "C[C@H](c1nc2c(cnn2C2CCOCC2)c(=O)[nH]1)N1CC(Oc2ccccc2)C1"
0.6

What about "Cn1c(=O)cc(N2CCC[C@@H](N)C2)n(Cc2ccccc2C#N)c1=O" ?
1.07

Here is the next compound: "NC(=O)c1cc(F)cc2c1C(=O)N(C1CCN(C3CCC(F)(F)CC3)CC1)C2"
0.02

Another: "O=C(C1CC1)N1CCN(Cn2sc3ccccc3c2=O)CC1"
-3.3

Moving on to "Cn1c(=O)c2c(nc(N3CCNCC3)n2Cc2nnc(-c3ccc(Cl)c(Cl)c3)o2)n(C)c1=O"
0.01

"Cc1n[nH]c(C)c1Cc1sc2c(c1C(=O)N1C[C@H](O)CO1)c(=O)n(C)c(=O)n2CC(C)C" , same question.
0.95

Continue with "N=C(N)SCc1ccc(CN2C(=O)C(=O)c3cc(Br)cc(Br)c32)cc1"
0

Same lookup for CC[C@H](C)[C@H](NC(C)=O)C(=O)N[C@@H](CCC(=O)O)C(=O)N[C@H](C(=O)N[C@H](C=O)CC(=O)O)[C@@H](C)O (Ac-IETD-aldehyde) , please.
-0.65

Same again, this time with "Cn1c(NCCN(CCO)CCCc2ccc([N+](=O)[O-])cc2)cc(=O)n(C)c1=O"
0.08

Here is the next compound: CCC(NC(=O)C(CC(C)C)NC(=O)OCc1ccccc1)C(=O)C(=O)NCCCN1CCOCC1 (stereo not given)
-0.24

Another compound: O=C(c1cccc(-c2ccc(-c3cn(C(=O)N4CCCCC4c4ccccc4)nn3)cc2)c1)N1CCCCC1 (stereo not given)
0.3

// query: "Cc1nc(Nc2ncc(C(=O)Nc3c(C)cccc3Cl)s2)cc(N2CCN(CCO)CC2)n1"
0.19
